Data origin: patent US20230348369A1

# STUDY_SYSTEM: human NAMPT (Homo sapiens, UniProt P43490)
# Sequence (P43490 whole entry): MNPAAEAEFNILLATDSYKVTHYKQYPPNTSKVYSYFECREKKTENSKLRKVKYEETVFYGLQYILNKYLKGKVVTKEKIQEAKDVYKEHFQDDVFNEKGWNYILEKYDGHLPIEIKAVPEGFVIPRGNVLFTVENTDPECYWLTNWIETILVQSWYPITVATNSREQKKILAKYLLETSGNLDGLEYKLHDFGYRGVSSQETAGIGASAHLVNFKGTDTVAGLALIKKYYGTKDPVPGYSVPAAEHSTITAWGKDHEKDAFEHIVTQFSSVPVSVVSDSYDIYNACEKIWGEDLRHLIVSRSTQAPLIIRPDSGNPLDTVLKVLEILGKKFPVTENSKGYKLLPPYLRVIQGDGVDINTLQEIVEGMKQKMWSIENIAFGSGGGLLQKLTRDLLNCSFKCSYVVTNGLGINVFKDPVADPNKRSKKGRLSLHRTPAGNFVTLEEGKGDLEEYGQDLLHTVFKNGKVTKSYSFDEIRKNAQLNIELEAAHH
# ASSAY_SUMMARY: Human recombinant enzyme assay (NMN fluorescence biochemical assay, activation of NAMPT)
# CONDITION_DETAILS: Table A; human recombinant NAMPT, NMN formation, 60 min; read-out: EC50 Human
pEC50: −log10 of the molar value.
MEASURED_PROPERTY: pEC50

Worked set:
COc1ccc(CNC(=O)NC2CC3(C2)CC(C(=O)N2CCCc4cc(C)ccc42)C3)cc1 (centres unmarked) :: 5.55
O=C(NCc1ccc(Cl)cc1)NC1CC2(CC(Cc3cnccn3)C2)C1 (centres unmarked) :: 5.89

[a] COc1ccc(CNC(=O)NC2CC3(C2)CC(C(=O)NC2Cc4ccccc4C2O)C3)cc1 (centres unmarked)
[b] COc1ccc(CNC(=O)NC2CC3(C2)CN(C(=O)c2cccc(N4CCOCC4)c2)C3)cc1
Incoming: Kindly identify which of a and b has the larger recorded pEC50 value. Mark your answer with the label of the selected entry.
Outgoing: b

====

# STUDY_SYSTEM: UniProt:P43490
# ASSAY_SUMMARY: Human recombinant enzyme assay (NMN fluorescence biochemical assay, activation of NAMPT)
# CONDITION_DETAILS: Table A; human recombinant NAMPT, NMN formation, 60 min
MEASURED_PROPERTY: AC1.4 Human (µM)

Worked set:
Cc1cnccc1C(=O)N1CC[C@]2(C1)C[C@@H](NC(=O)NCc1ccc(Cl)cc1)C2 [Compound 166] :: 14.2
COc1ccc(CNC(=O)NC2CC3(C2)CC(C(=O)N2CCCc4cc(F)ccc42)C3)cc1 (stereo not drawn) [Compound 101] :: 0.2
Cc1ccc(CC(=O)N2CCC(CCCCNC(=O)NCc3ccc(Cl)cc3)CC2)cn1 [Compound 311] :: 1.2
O=C(NCc1ccc(Cl)cc1)NC1CC2(C1)CC(Oc1cccnc1)C2 (stereo not drawn) [Compound 343] :: 3.0
Cc1cc(C(=O)N2CC[C@]3(C2)C[C@@H](NC(=O)NCc2ccc(Cl)cc2)C3)ccn1 [Compound 160] :: 13.6
COc1ccc(CNC(=O)NC2CC3(CC(CC(=O)N(C)Cc4ccccc4)C3)C2)cc1 (stereo not drawn) [Compound 67] :: 2.3
COc1ccc(CNC(=O)NC2CC3(C2)CN(C(=O)Cc2ccccc2C(F)(F)F)C3)cc1 [Compound 41] :: 5.0
COc1ccc(CNC(=O)NC2CC3(C2)CC(Oc2cccnc2)C3)cc1 (stereo not drawn) [Compound 344] :: 3.1
COc1ccc(CNC(=O)NC2CC3(C2)CC(OCc2ccncc2)C3)cc1 (stereo not drawn) [Compound 349] :: 6.9
O=C(NCc1ccc(Cl)cc1)NC1CC2(CC(CS(=O)(=O)c3cccnc3)C2)C1 (stereo not drawn) [Compound 353] :: 5.3

[P] COC(=O)N1CCN(C(=O)C2CC3(CC(NC(=O)NCc4ccc(Cl)cc4)C3)C2)CC1 (stereo not drawn) [Compound 233]
[Q] Cc1ccc(NC(=O)CCCCCNC(=O)NCc2ccc(Cl)cc2)cn1 [Compound 278]
Incoming: Kindly identify which of P and Q has the larger recorded AC1.4 Human value. Mark your answer with the label of the selected entry.
Outgoing: Q
(Q: 1.8 µM, P: 0.9 µM)

[1] COc1ccc(CNC(=O)NC2CC3(C2)CC(C(=O)NCC(C)(C)c2cccnc2)C3)cc1 (stereo not drawn) [Compound 66]
[2] CC(C)(C)CN1CCN(C(=O)CCCCCNC(=O)NCc2ccc(Cl)cc2)CC1 [Compound 260]
Incoming: Kindly identify which of 1 and 2 has the larger recorded AC1.4 Human value. Mark your answer with the label of the selected entry.
Outgoing: 1

[I] NC(=O)c1ccc(CNC(=O)NC2CC3(CC(NCc4ccccn4)C3)C2)cc1 (stereo not drawn) [Compound 34]
[II] O=C(NCc1ccc(Cl)cc1)NC1CC2(C1)CC(OCc1ccncc1)C2 (stereo not drawn) [Compound 348]
[III] COc1ccc(CNC(=O)NC2CC3(C2)CN(C(=O)c2cccc(C(C)C)c2)C3)cc1 [Compound 173]
[IV] COc1ccc(CNC(=O)NC2CC3(C2)CC(C(=O)N2CCN(Cc4ccccn4)CC2)C3)cc1 (stereo not drawn) [Compound 125]
Incoming: In this exercise, place the 4 molecules in ascending sequence of their recorded AC1.4 Human. Please reply with the labels ordered as requested. Many thanks.
Outgoing: III, II, IV, I
